system.tested: Induced myeloid leukemia cell differentiation protein Mcl-1 (Homo sapiens) (UniProt Q07820)
Sequence (Q07820 whole entry, looked up): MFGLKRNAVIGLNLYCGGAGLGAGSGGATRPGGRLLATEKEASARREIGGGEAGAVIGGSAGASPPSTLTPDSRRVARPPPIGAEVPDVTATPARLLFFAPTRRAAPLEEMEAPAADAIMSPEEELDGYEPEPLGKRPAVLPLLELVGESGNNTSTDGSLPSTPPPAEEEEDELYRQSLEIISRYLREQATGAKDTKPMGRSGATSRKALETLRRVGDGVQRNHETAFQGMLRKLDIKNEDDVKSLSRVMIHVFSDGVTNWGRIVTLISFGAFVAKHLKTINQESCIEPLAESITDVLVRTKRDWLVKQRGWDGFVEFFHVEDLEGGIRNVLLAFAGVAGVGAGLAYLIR
test.method.notes: modulators of Bim peptide binding to Mcl-1, dose response, biochemical, bead-based flow cytometry, multiplexed, human (AID 1329)
details: Bim peptide-Mcl-1 binding, MCF
Active and inactive are the calls of the source. The rule behind the calls is not given here.
reported.endpoint: percent span

{"columns": ["compound", "reported.endpoint", "observed.result"],
 "data": [
  ["O=C(COC(=O)CCCN=C1NS(=O)(=O)c2ccccc21)NC(=O)NC1CCCC1", "percent span", "inactive"],
  ["C/C(=C\\c1ccco1)C1Nc2cccc3cccc(c23)N1", "percent span", "inactive"],
  ["O=C(C1=C(Nc2ccccc2)c2ccccc2S(=O)(=O)N1)c1ccccc1", "percent span", "inactive"],
  ["Cc1ccc(NC(=O)CSc2nc3ccccc3c(=O)n2CCCN2CCCCC2)cc1Cl", "percent span", "inactive"],
  ["O=C1NC(=O)C2(Cc3c(nc4ccccn4c3=O)N3CCCCCC32)C(=O)N1Cc1ccccc1 (configuration not stated)", "percent span", "inactive"],
  ["OCCC1CN(Cc2nc3c(s2)CCCC3)CCN1Cc1ccsc1 (configuration not stated)", "percent span", "inactive"],
  ["Cc1c(NC2=C(Cl)C(=O)N(c3ccccc3)C2=O)c(=O)n(-c2ccccc2)n1C", "percent span", "inactive"],
  ["COC(=O)c1c(NC(=O)COc2ncnc3ccccc23)sc(C)c1C", "percent span", "inactive"],
  ["O=C(Nc1nnc(C2CC2)s1)C1Cc2ccccc2CN1S(=O)(=O)c1ccccc1F (configuration not stated)", "percent span", "inactive"],
  ["CN(CCCOc1ccccc1Br)Cc1ccccc1", "percent span", "inactive"],
  ["CCOc1ccccc1C(=O)NC1CC2CCCC(C1)N2C1CC1 (configuration not stated)", "percent span", "inactive"],
  ["COc1cc(NC(=O)c2ccc3c(c2)OCO3)ccc1NC(=O)c1ccco1", "percent span", "inactive"],
  ["CC(C)(C)C(=O)NC(NC(=S)Nc1ccc(S(N)(=O)=O)cc1)C(Cl)(Cl)Cl (configuration not stated)", "percent span", "inactive"],
  ["CCOC(=O)c1c2c3c(cccc3[nH]c1=O)C(=O)c1ccccc1-2", "percent span", "inactive"],
  ["Cn1c(N)c(C(=O)COC(=O)c2cc(-c3ccco3)nc3ccccc23)c(=O)n(C)c1=O", "percent span", "inactive"],
  ["CC(NC(=O)Nc1ccccn1)N1C(=O)C2C3C=CC(C3)C2C1=O (configuration not stated)", "percent span", "inactive"],
  ["Cc1cc(-c2csc(N)n2)c(C)n1CCc1ccccc1", "percent span", "inactive"],
  ["CCN(CC)c1ccc(NC(=O)COc2ccccc2C)cc1S(=O)(=O)Nc1ccccc1OC", "percent span", "inactive"],
  ["COc1cccc(/C=N/NC(=O)c2cc3cc([N+](=O)[O-])ccc3s2)c1O", "percent span", "inactive"],
  ["Cn1c(CCNC(=O)C2CCCCC2)nc2cc(NC(=O)c3cccs3)ccc21", "percent span", "inactive"],
  ["O=C(C1=NN(c2ccccc2)C2C(=O)N(c3ccccc3)C(=O)C12)c1ccccc1 (configuration not stated)", "percent span", "inactive"],
  ["Cc1cccc(/C=N/N(CCO)C2=NS(=O)(=O)c3ccccc32)c1", "percent span", "inactive"]
]}

====

system.tested: Induced myeloid leukemia cell differentiation protein Mcl-1 (Homo sapiens) (UniProt Q07820)
test.method.notes: modulators of Bim peptide binding to Mcl-1, dose response, biochemical, bead-based flow cytometry, multiplexed, human (AID 1329)
details: Bim peptide-Mcl-1 binding, MCF
The source made the active and inactive calls. How the calls were made is not given here.

{"columns": ["molecule", "percent span"],
 "data": [
  ["COc1ccc(NC(=O)c2cccs2)cc1", "inactive"],
  ["COc1ccc(N2CCN(C(CNS(=O)(=O)c3ccc4c(c3)OCCO4)c3ccco3)CC2)cc1 (stereo not given)", "inactive"],
  ["COc1cc(/C=C2\\S/C(=N/S(=O)(=O)c3ccccc3)NC2=O)c([N+](=O)[O-])cc1OC", "inactive"],
  ["CC(C)Cc1cc(-c2ccco2)c(C#N)c(N)n1", "inactive"],
  ["CC(=O)NC1=C(NC2CCS(=O)(=O)C2)C(=O)c2ccccc2C1=O (stereo not given)", "inactive"]
]}

====

system.tested: Induced myeloid leukemia cell differentiation protein Mcl-1 (Homo sapiens) (UniProt Q07820)
test.method.notes: modulators of Bim peptide binding to Mcl-1, dose response, biochemical, bead-based flow cytometry, multiplexed, human (AID 1329)
details: Bim peptide-Mcl-1 binding, MCF
Activity calls are given as the source filed them. The rule behind the calls is not given here.

{"columns": ["compound", "percent span"],
 "data": [
  ["Cc1ccc(/C=C/C(=O)c2ccccc(=O)c2O)cc1C", "inactive"],
  ["COc1ccc(C2CC(=O)C3=C(C2)Nc2ccccc2NC3c2coc3ccccc3c2=O)cc1OC (stereo not drawn)", "inactive"],
  ["CCOC(=O)CSC1=NC(=O)/C(=C/c2ccc(OC)cc2)S1", "inactive"]
]}
